MIC values by entry
tested on: Acinetobacter baumannii; assay: Antibacterial activity against Acinetobacter baumannii assessed as bacterial growth inhibition; assay type: functional

| Smiles String | Result |
| --- | --- |
| CN[C@H](CC(C)C)C(=O)N[C@H]1C(=O)N[C@@H](CC(N)=O)C(=O)N[C@H]2C(=O)N[C@H]3C(=O)N[C@H](C(=O)N[C@H](C(=O)NNCc4ccccc4)c4cc(O)cc(O)c4-c4cc3ccc4O)[C@H](O)c3ccc(c(Cl)c3)Oc3cc2cc(c3O[C@@H]2O[C@H](CO)[C@@H](O)[C@H](O)[C@H]2O[C@H]2C[C@](C)(N)[C@H](O)[C@H](C)O2)Oc2ccc(cc2Cl)[C@H]1O | > 128 µg/mL |

Turning now to a further compound:
Problem: Quick check: MIC on Acinetobacter baumannii, item CN[C@H](CC(C)C)C(=O)N[C@H]1C(=O)N[C@@H](CC(N)=O)C(=O)N[C@H]2C(=O)N[C@H]3C(=O)N[C@H](C(=O)N[C@H](C(=O)N/N=C/c4ccc(-c5ccc(C(F)(F)F)cc5)cc4)c4cc(O)cc(O)c4-c4cc3ccc4O)[C@H](O)c3ccc(c(Cl)c3)Oc3cc2cc(c3O[C@@H]2O[C@H](CO)[C@@H](O)[C@H](O)[C@H]2O[C@H]2C[C@](C)(N)[C@H](O)[C@H](C)O2)Oc2ccc(cc2Cl)[C@H]1O ?
Result: > 128 µg/mL
